We begin with a simple list: items and their reported GI50.
Test system: ACHN renal
TEST PROTOCOL: NCI tumour cell line growth inhibition, 48 h

1) CCC(=C/[C@H](C)C/C=C/C(C)=C/[C@@H](C)C(=O)[C@@H](C)[C@H](O)[C@@H](C)CC)/C=C/[C@H]1OC(=O)C=C[C@@H]1C : < 10 nM
2) COc1cc(/C(C#N)=C/c2nc3c(N4CCOCC4)nc(Cl)nc3n2C)cc(OC)c1OC : < 10 nM
3) O=C1CCCCN1c1ccccc1C#C/C=C\C#Cc1ccccc1C(F)(F)F : 2670 nM

Query :: Any idea what GI50 was measured for "COc1ccc(-c2cn[nH]c2-c2cc(OC)c(OC)c(OC)c2)cc1" ?
Result :: 61.5 nM

Query :: Any idea what GI50 was measured for COc1ccc(C2[C@@H](c3ccccc3)C(=O)N2c2cc(OC)c(OC)c(OC)c2)cc1F (stereo partly drawn) ?
Result :: 44 nM

Query :: Any idea what GI50 was measured for "Cc1ccc(-n2c3nc(=O)[nH]c(=O)c-3cc3cc([N+](=O)[O-])ccc32)cc1" ?
Result :: 38100 nM

###

Test system: OVCAR-3 ovarian
TEST PROTOCOL: NCI tumour cell line growth inhibition, 48 h
We begin with a simple list: items and their reported TGI.
Express the result in µM but write the number alone.

1) CCC(=C/[C@H](C)C/C=C/C(C)=C/[C@@H](C)C(=O)[C@@H](C)[C@H](O)[C@@H](C)CC)/C=C/[C@H]1OC(=O)C=C[C@@H]1C : 3.96

Okay, now this compound:
Query :: Any idea what TGI was measured for CCCCCCCCCCCCC(O)c1ccc(C#CCCCCCCCCCO)o1 (stereo not drawn) ?
Result :: 34

###

Tested on: DU-145 prostate
TEST PROTOCOL: NCI tumour cell line growth inhibition, 48 h; in the data active = GI50 below about 0.43 µM; inactive = the rest
Please answer using one outcome listed in active, inactive

1. COc1cc(/C(C#N)=C/c2nc3c(N4CCOCC4)nc(Cl)nc3n2C)cc(OC)c1OC : active
2. COc1cc(-c2ccc3cc(OC)c(OC)c(OC)c3c2)cc(OC)c1OC : inactive
3. CCC(=C/[C@H](C)C/C=C/C(C)=C/[C@@H](C)C(=O)[C@@H](C)[C@H](O)[C@@H](C)CC)/C=C/[C@H]1OC(=O)C=C[C@@H]1C : active

Query :: Can you look up the reported call for COc1ccc2nc3cc(Cl)ccc3c(NCCNCC(C)O)c2c1 (stereo unspecified) for me?
Result :: inactive

Query :: Can you look up the reported call for COc1ccc(C2[C@@H](c3ccccc3)C(=O)N2c2cc(OC)c(OC)c(OC)c2)cc1F (stereo partly specified) for me?
Result :: active

Query :: Can you look up the reported call for "COc1ccc(CCN=C2NC(=O)/C(=C/c3ccc4ncccc4c3)S2)cc1" for me?
Result :: inactive

Query :: Can you look up the reported call for "Nc1cc(NN=C(c2ccc(O)cc2)c2ccc(O)cc2)c([N+](=O)[O-])cc1[N+](=O)[O-]" for me?
Result :: inactive

Query :: Can you look up the reported call for "N#CC(C#N)=C/C=C(\Sc1nc2ccccc2s1)c1ccc(Cl)cc1" for me?
Result :: inactive

Query :: Can you look up the reported call for "Cn1ccc2c3c(Oc4ccc(NC(N)=O)cc4)ccnc3ccc21" for me?
Result :: inactive

Query :: Can you look up the reported call for "Cc1nnc(NC(=O)c2nc(S(=O)(=O)Cc3ccc(F)cc3)ncc2Cl)s1" for me?
Result :: inactive

Query :: Can you look up the reported call for C[C@]12CCC3c4ccc(O)cc4CCC3C1CC[C@@]2(O)CNC(=O)/C=C/c1ccc(O)c(O)c1 (stereo partly specified) for me?
Result :: inactive

###

System: NCI-H460 lung
Where a SMILES comes first, the peptide text is derived from it. [ ]: non-standard residue; d: D form. The star is where a group is joined. ξ: configuration not given here. X3 = COc1ccc(C(N*)c2ccc(OC)cc2)cc1; NMeF = CN[C@@H](Cc1ccccc1)C(=O)O; NMeD = CN[C@@H](CC(=O)O)C(=O)O; NMeV = CN[C@H](C(=O)O)C(C)C; ξNMeV = CNC(C(=O)O)C(C)C; Boc = CC(C)(C)OC(=O)*; ξNMeA = CNC(C)C(=O)O; ξV = CC(C)C(N)C(=O)O
Please answer using one outcome listed in active, inactive

Past entries and their recorded results:
1. COc1cccc(C(=O)NC(c2ccc(C)cc2)c2cc(Cl)c3cccnc3c2O)c1 (stereo not drawn) : active
2. COc1ccc(C(NC(=O)C[C@@H](C(=O)N(C)C(C)C(=O)O)N(C)C(=O)[C@@H]2CCCN2C(=O)[C@H](C(C)C)N(C)C(=O)C(C(C)C)N(C)C(=O)[C@H](Cc2ccccc2)N(C)C(=O)C(NC(=O)OC(C)(C)C)C(C)C)c2ccc(OC)cc2)cc1 (stereo partly drawn) (Boc-[ξV][NMeF][ξNMeV][NMeV]P[NMeD](X3)[ξNMeA]-OH) : inactive

Now examine the next entry.
Query :: Can you look up the reported call for Nc1ccccc1SC(CC(=O)c1ccccc1)c1cccc([N+](=O)[O-])c1 (stereo not drawn) for me?
Result :: inactive

###

Tested on: HCC-2998 colon
TEST PROTOCOL: NCI tumour cell line growth inhibition, 48 h
We begin with a simple list: items and their reported TGI.

Worked set:
1. C=C1C(=O)O[C@H]2[C@H]1CC/C(COC(=O)NCc1ccc(Cn3c(=O)sn(-c4ccc(OC)cc4)c3=O)cc1)=C\CC[C@@]1(C)O[C@@H]21 : 25.5 µM
2. O=[N+]([O-])c1ccc(Cl)cc1N/N=C/c1ccnc2ccccc12 : > 100 µM
3. COc1ccc(OC)c(N2CC(N)C2=O)c1 (configuration not stated) : > 100 µM

Query :: Any idea what TGI was measured for CC(C)=CCC(O)C1=CC(=O)c2c(O)ccc(O)c2C1=O (configuration not stated) ?
Result :: 3.68 µM

Query :: Any idea what TGI was measured for "CC(C)=CCC[C@@H](C)c1c(O)c(O)c(C)c2nccnc12" ?
Result :: > 96.6 µM

Query :: Any idea what TGI was measured for "COc1ccc(-n2c(C)nc3ccc(NC(=S)Nc4ccccc4)cc3c2=O)cc1" ?
Result :: > 100 µM

Query :: Any idea what TGI was measured for COc1nc(NC2OC(COC(C)=O)C(OC(C)=O)C(OC(C)=O)C2OC(C)=O)c2c(OC(C)=O)cc(=O)oc2n1 (configuration not stated) ?
Result :: > 100 µM

Query :: Any idea what TGI was measured for "CCC(=O)NC(Nc1cc(C)on1)(C(F)(F)F)C(F)(F)F" ?
Result :: > 100 µM

Query :: Any idea what TGI was measured for "Nn1c(-c2ccccc2)n[nH]c1=O" ?
Result :: > 100 µM

Query :: Any idea what TGI was measured for "COc1cccc(-c2nc(-c3ccc(NC(=O)OC(C)C)cc3)[nH]c2-c2ccnc(Br)c2)c1" ?
Result :: > 100 µM

###

Test system: SNB-75 CNS
TEST PROTOCOL: NCI tumour cell line growth inhibition, 48 h
We begin with a simple list: items and their reported TGI.
Express the result in µM but write the number alone.

1. COc1cc(S(=O)(=O)Nc2nc(-c3ccc(N4C(=O)C(CC(=O)O)SC4c4cccs4)cc3)cs2)ccc1Cl (stereo not given) : 40.4
2. Nc1ccc(C2=NNC(=O)Cc3cc4c(cc32)OCCO4)cc1Cl : 27.9
3. Cc1cc(I)cc(CN(CCCN(C)C)C(C)C)c1O : 36.3

Okay, now this compound:
Query :: Any idea what TGI was measured for "CC1(COc2ccc3c(c2)ncn3-c2ccc3cccc(N4CCC(N)CC4)c3n2)COC1" ?
Result :: 5.65

###

We begin with a simple list: items and their reported TGI.
Tested on: MDA-MB-435
TEST PROTOCOL: NCI tumour cell line growth inhibition, 48 h

Worked set:
1) CCOC(=O)N1CCN(Cc2cc(=O)n3ccc(C)cc3n2)CC1 : > 100 µM
2) O=C(NCc1ccccc1)c1n[nH][nH]c1=O : > 100 µM
3) O=C1NC(=NC(CO)Cc2ccccc2)S/C1=C\c1ccc2ncccc2c1 (configuration not stated) : > 25 µM

Query :: Any idea what TGI was measured for "Cc1cc(-c2nc3ccc(F)cc3s2)ccc1NC(=O)[C@H](C)N" ?
Result :: 5.82 µM

Query :: Any idea what TGI was measured for "Nc1nc(-c2ccccc2)nc2oc(-c3cccs3)nc12" ?
Result :: > 100 µM

Query :: Any idea what TGI was measured for "Nc1ncnc2c1[nH]c(=O)n2-c1ccccc1" ?
Result :: > 100 µM

Query :: Any idea what TGI was measured for "Cc1ccccc1C(=N)c1ccccc1Cc1cccc2ccccc12" ?
Result :: 52.9 µM

Query :: Any idea what TGI was measured for "c1ccc(Sc2ncnc3ccccc23)cc1" ?
Result :: 32.5 µM

Query :: Any idea what TGI was measured for "Cn1ccc2c3c(Oc4ccc(NC(N)=O)cc4)ccnc3ccc21" ?
Result :: > 100 µM

Query :: Any idea what TGI was measured for "CCn1c(-c2nonc2N)nc2c(C#CC(C)(C)O)nc(OC[C@@H](N)c3ccccc3)cc21" ?
Result :: 9.81 µM

Query :: Any idea what TGI was measured for "CC(=O)Nn1c(=S)[nH]c2ccccc21" ?
Result :: > 100 µM

Query :: Any idea what TGI was measured for "COc1ccc(N=NC(=Nc2ccccc2)c2ccc(N(CCC#N)CCC#N)cc2)cc1" ?
Result :: > 100 µM
